measured_on: DRB1*0802
experimental_protocol: binding to purified HLA
conditions_used: chains peptide; modification not given
readout_type: IC50 (nM)
// units = nM; emit number, no label

Form: binder = AKFVAAWTLKAAA [SEQ ID NO: 3] ; IC50 = 9.5
